- System: 242566-281-R-J2-PDC complex spheroid viability
- Measurement Notes: Anticancer human tumor 242566-281-R-J2-PDC patient-derived pancreatic carcinoma cell line growth inhibition [RAS]
- Condition Set: second compound 0.0316 µM; first compound 0.00316 µM; stronger effect = lower value
Hi! Just check whether viability, T/C is below 90%. Below gives Yes, equal or above gives No.

Recorded results for 3 molecules are shown here.
molecule="Nc1ccn(C2OC(CO)C(O)C2(F)F)c(=O)n1 (stereo not drawn) + C=CC(=O)N1CCN(c2nc(OCC3CCCN3C)nc3c(F)c(-c4nc(N)cc(C)c4C(F)(F)F)c(Cl)cc23)C(C)C1" cat=No
molecule="CC(C)n1nc(-c2ccc3oc(N)nc3c2)c2c(N)ncnc21 + C#Cc1c(F)ccc2cc(O)cc(-c3ncc4c(N5CC6CCC(C5)N6)nc(OCC56CCCN5CC(F)C6)nc4c3F)c12" cat=Yes
molecule="C=CC(=O)Nc1cc(Nc2nccc(-c3cn(C)c4ccccc34)n2)c(OC)cc1N(C)CCN(C)C + C#Cc1c(F)ccc2cc(O)cc(-c3ncc4c(N5CC6CCC(C5)N6)nc(OCC56CCCN5CC(F)C6)nc4c3F)c12" cat=Yes

Ask: Here's an entry: C=CC(=O)Nc1cc(Nc2nccc(-c3cn(C)c4ccccc34)n2)c(OC)cc1N(C)CCN(C)C + C=CC(=O)N1CCN(c2nc(OCC3CCCN3C)nc3c(F)c(-c4nc(N)cc(C)c4C(F)(F)F)c(Cl)cc23)C(C)C1 . Is its viability, T/C below 90%?
Result: No

Ask: Here's an entry: CCN1CCN(Cc2ccc(Nc3ncc(F)c(-c4cc(F)c5nc(C)n(C(C)C)c5c4)n3)nc2)CC1 + C#Cc1c(F)ccc2cc(O)cc(-c3ncc4c(N5CC6CCC(C5)N6)nc(OCC56CCCN5CC(F)C6)nc4c3F)c12 . Is its viability, T/C below 90%?
Result: No

Ask: Here's an entry: CCN1CCN(Cc2ccc(Nc3ncc(F)c(-c4cc(F)c5nc(C)n(C(C)C)c5c4)n3)nc2)CC1 + C=CC(=O)N1CCN(c2nc(OCC3CCCN3C)nc3c(F)c(-c4nc(N)cc(C)c4C(F)(F)F)c(Cl)cc23)C(C)C1 . Is its viability, T/C below 90%?
Result: No

Ask: Here's an entry: O=C(c1ccc(F)c(F)c1Nc1ccc(I)cc1F)N1CC(O)([C@@H]2CCCCN2)C1 + C=CC(=O)N1CCN(c2nc(OCC3CCCN3C)nc3c(F)c(-c4nc(N)cc(C)c4C(F)(F)F)c(Cl)cc23)C(C)C1 . Is its viability, T/C below 90%?
Result: No

----------
# viability, T/C values compiled below
- System: 242566-281-R-J2-PDC complex spheroid viability
- Measurement Notes: Anticancer human tumor 242566-281-R-J2-PDC cell line growth inhibition [RAS];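 further: spheroids exposed to compound for 7 days before readout; 100% = DMSO vehicle control wells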
- Condition Set: second compound 0.0949 µM; first compound 0.00316 µM; stronger effect = lower value
Value expressed in %; do not type the unit.

compound="C=CC(=O)N1CCN(c2nc(OCC3CCCN3C)nc3c(F)c(-c4nc(N)cc(C)c4C(F)(F)F)c(Cl)cc23)C(C)C1 (centres undefined) + CCn1c(-c2cc(N3CCN(C)CC3)cnc2C(C)OC)c2c3cc(ccc31)-c1csc(n1)CC(NC(=O)C1CC1C)C(=O)N1CCCC(N1)C(=O)OCC(C)(C)C2" experimental_readout="viability, T/C" measured_value=25.1
compound="C=CC(=O)Nc1cc(Nc2nccc(-c3cn(C)c4ccccc34)n2)c(OC)cc1N(C)CCN(C)C + CCn1c(-c2cc(N3CCN(C)CC3)cnc2C(C)OC)c2c3cc(ccc31)-c1csc(n1)CC(NC(=O)C1CC1C)C(=O)N1CCCC(N1)C(=O)OCC(C)(C)C2" experimental_readout="viability, T/C" measured_value=21.2

Ask: Please give the measured viability, T/C for this compound: CCN1CCN(Cc2ccc(Nc3ncc(F)c(-c4cc(F)c5nc(C)n(C(C)C)c5c4)n3)nc2)CC1 + CCn1c(-c2cc(N3CCN(C)CC3)cnc2C(C)OC)c2c3cc(ccc31)-c1csc(n1)CC(NC(=O)C1CC1C)C(=O)N1CCCC(N1)C(=O)OCC(C)(C)C2
Result: 22

Ask: Please give the measured viability, T/C for this compound: O=C(c1ccc(F)c(F)c1Nc1ccc(I)cc1F)N1CC(O)([C@@H]2CCCCN2)C1 + CCn1c(-c2cc(N3CCN(C)CC3)cnc2C(C)OC)c2c3cc(ccc31)-c1csc(n1)CC(NC(=O)C1CC1C)C(=O)N1CCCC(N1)C(=O)OCC(C)(C)C2
Result: 21.9

----------
- Test system: 242566-281-R-J2-PDC complex spheroid viability
- Measurement Notes: Anticancer human tumor 242566-281-R-J2-PDC cell line growth inhibition [RAS];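 further: spheroids exposed to compound for 7 days before readout; 100% = DMSO vehicle control wells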
- Condition Set: second compound 0.003 µM; first compound 10 µM; stronger effect = lower value
# viability, T/C values compiled below

Please review the following examples before continuing.
compound="CC(=O)OC12COC1CC(O)C1(C)C(=O)C(O)C3=C(C)C(OC(=O)C(O)C(NC(=O)OC(C)(C)C)c4ccccc4)CC(O)(C(OC(=O)c4ccccc4)C21)C3(C)C (stereo not drawn) + CCn1c(-c2cc(N3CCN(C)CC3)cnc2C(C)OC)c2c3cc(ccc31)-c1csc(n1)CC(NC(=O)C1CC1C)C(=O)N1CCCC(N1)C(=O)OCC(C)(C)C2" target_desc="242566-281-R-J2-PDC complex spheroid viability" measured_value=25.2%
compound="CC(Nc1ccc2c(c1)OCCn1cc(N3C(=O)OCC3C(F)F)nc1-2)C(N)=O (stereo not drawn) + CCn1c(-c2cccnc2C(C)OC)c2c3cc(ccc31)N1CCOC(CC(NC(=O)C(C(C)C)N(C)C(=O)C3(F)CCN(C(=O)C#CC(C)(C)N(C)C)CC3)C(=O)N3CCCC(N3)C(=O)OCC(C)(C)C2)C1" target_desc="242566-281-R-J2-PDC complex spheroid viability" measured_value=18.1%
compound="CCC(CC)c1cc(NC2CCC(N)C2)n2nccc2n1 (stereo not drawn) + CCn1c(-c2cccnc2C(C)OC)c2c3cc(ccc31)N1CCOC(CC(NC(=O)C(C(C)C)N(C)C(=O)C3(F)CCN(C(=O)C#CC(C)(C)N(C)C)CC3)C(=O)N3CCCC(N3)C(=O)OCC(C)(C)C2)C1" target_desc="242566-281-R-J2-PDC complex spheroid viability" measured_value=1.8%
compound="CC(Nc1ccc2c(c1)OCCn1cc(N3C(=O)OCC3C(F)F)nc1-2)C(N)=O (stereo not drawn) + CCn1c(-c2cc(N3CCN(C)CC3)cnc2C(C)OC)c2c3cc(ccc31)-c1csc(n1)CC(NC(=O)C1CC1C)C(=O)N1CCCC(N1)C(=O)OCC(C)(C)C2" target_desc="242566-281-R-J2-PDC complex spheroid viability" measured_value=5.29%
compound="C[C@@H](NC(=O)c1ncnc(N)c1Cl)c1ncc(C(=O)Nc2cc(C(F)(F)F)c(Cl)cn2)s1 + CCn1c(-c2cc(N3CCN(C)CC3)cnc2C(C)OC)c2c3cc(ccc31)-c1csc(n1)CC(NC(=O)C1CC1C)C(=O)N1CCCC(N1)C(=O)OCC(C)(C)C2" target_desc="242566-281-R-J2-PDC complex spheroid viability" measured_value=62.3%
compound="Cc1nc(N2CCC3(CC2)COC(C)C3N)c(CO)nc1Sc1ccnc(N)c1Cl (stereo not drawn) + CCn1c(-c2cc(N3CCN(C)CC3)cnc2C(C)OC)c2c3cc(ccc31)-c1csc(n1)CC(NC(=O)C1CC1C)C(=O)N1CCCC(N1)C(=O)OCC(C)(C)C2" target_desc="242566-281-R-J2-PDC complex spheroid viability" measured_value=16.1%
compound="C[C@@H](NC(=O)c1ncnc(N)c1Cl)c1ncc(C(=O)Nc2cc(C(F)(F)F)c(Cl)cn2)s1 + CCn1c(-c2cccnc2C(C)OC)c2c3cc(ccc31)N1CCOC(CC(NC(=O)C(C(C)C)N(C)C(=O)C3(F)CCN(C(=O)C#CC(C)(C)N(C)C)CC3)C(=O)N3CCCC(N3)C(=O)OCC(C)(C)C2)C1" target_desc="242566-281-R-J2-PDC complex spheroid viability" measured_value=87.7%

Let us examine a further case.
Ask: Please give the measured viability, T/C for this compound: NC1c2ccccc2OC12CCN(c1cnc3c(N4CCCc5ncccc54)n[nH]c3n1)CC2 (stereo not drawn) + CCn1c(-c2cccnc2C(C)OC)c2c3cc(ccc31)N1CCOC(CC(NC(=O)C(C(C)C)N(C)C(=O)C3(F)CCN(C(=O)C#CC(C)(C)N(C)C)CC3)C(=O)N3CCCC(N3)C(=O)OCC(C)(C)C2)C1
Result: 25.5%

----------
# viability, T/C values compiled below
- Test system: 242566-281-R-J2-PDC complex spheroid viability
- Measurement Notes: Anticancer human tumor 242566-281-R-J2-PDC cell line growth inhibition [RAS];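 further: spheroids exposed to compound for 7 days before readout; 100% = DMSO vehicle control wells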
- Condition Set: second compound 0.3 µM; first compound 0.1 µM; stronger effect = lower value

compound="CC(C)NCC(C(=O)N1CCN(c2ncnc3c2C(C)CC3O)CC1)c1ccc(Cl)cc1 (configuration not stated) + CCn1c(-c2cccnc2C(C)OC)c2c3cc(ccc31)N1CCOC(CC(NC(=O)C(C(C)C)N(C)C(=O)C3(F)CCN(C(=O)C#CC(C)(C)N(C)C)CC3)C(=O)N3CCCC(N3)C(=O)OCC(C)(C)C2)C1" experimental_readout="viability, T/C" measured_value=88.7%

Let us examine a further case.
Ask: Please give the measured viability, T/C for this compound: CCN1CCN(Cc2ccc(Nc3ncc(F)c(-c4cc(F)c5nc(C)n(C(C)C)c5c4)n3)nc2)CC1 + CCn1c(-c2cccnc2C(C)OC)c2c3cc(ccc31)N1CCOC(CC(NC(=O)C(C(C)C)N(C)C(=O)C3(F)CCN(C(=O)C#CC(C)(C)N(C)C)CC3)C(=O)N3CCCC(N3)C(=O)OCC(C)(C)C2)C1
Result: 77.7%
